Species: Oryctolagus cuniculus
Assay info: In vitro percent inhibition against U-44,069 (10e-7 M) induced contraction of rabbit aorta at 10e-5 M concentration.
Format: functional
For each entry below, report its Inhibition value.
A number alone suffices; assume %.

Query: Suppose we examine the molecule COc1ccc(C(CCCCCC(=O)O)C2=C(C)C(=O)C(C)=C(C)C2=O)cc1 (stereo unspecified) ; what Inhibition value has been reported?
Reply: 100

Query: Bench note: what Inhibition did CC1=C(C)C(=O)C(C(CCCCCC(=O)O)c2cccc(C(F)(F)F)c2)=C(C)C1=O (stereo unspecified) show?
Reply: 64

Query: What does the data say about its Inhibition? Entry: CC1=C(C)C(=O)C(C(CCCCC(=O)O)c2ccccc2)=C(C)C1=O (stereo unspecified)
Reply: 63

Query: So what does the record say about Inhibition for COC1=C(OC)C(=O)C(C(CCCCCC(=O)O)c2ccccc2)=C(C)C1=O (stereo unspecified) ?
Reply: 0

Query: Name the recorded Inhibition for CC1=C(C)C(=O)C(C(CCc2cccc(C(=O)O)c2)c2ccccc2)=C(C)C1=O (stereo unspecified) .
Reply: 89

Query: Bench note: what Inhibition did CC1=C(C(CCCCCC(=O)O)c2ccccc2)C(=O)c2ccccc2C1=O (stereo unspecified) show?
Reply: 100

Query: Quick one: Inhibition of CC1=C(C(CCCCCC(=O)O)c2ccc(F)cc2)C(=O)c2ccccc2C1=O (stereo unspecified) ?
Reply: 100

Query: // Inhibition lookup, key: CC1=C(C)C(=O)C(C(CCOc2cccc(C(=O)O)c2)c2ccccc2)=C(C)C1=O (stereo unspecified)
Reply: 2

Query: Please look up its Inhibition: CC1=C(C)C(=O)C(C(CCCCCC(=O)O)c2ccc(F)cc2)=C(C)C1=O (stereo unspecified)
Reply: 100

Query: What does the data say about its Inhibition? Entry: COc1ccccc1C(CCCCCC(=O)O)C1=C(C)C(=O)C(C)=C(C)C1=O (stereo unspecified)
Reply: 0

Query: Can you look up the measured Inhibition of CCCCCCC(C1=C(C)C(=O)C(C)=C(C)C1=O)c1ccccc1 (stereo unspecified) for me?
Reply: 25

Query: Need Inhibition, item CC1=C(C)C(=O)C(C(CCCCCC(=O)O)c2ccc(C)cc2)=C(C)C1=O (stereo unspecified)
Reply: 100

Query: Which Inhibition is listed for CC1=C(C)C(=O)C(CCCCCCC(=O)O)=C(C)C1=O ?
Reply: 8

Query: # get_value(readout='Inhibition', item= CC1=C(C)C(=O)C(C(CCCCCCO)c2ccccc2)=C(C)C1=O (stereo unspecified) )
Reply: 0

Query: Given the molecule CC1=C(C)C(=O)C(C(CCCC#CC(=O)O)c2ccccc2)=C(C)C1=O (stereo unspecified) , what is its reported Inhibition?
Reply: 72

Query: Recorded Inhibition for CC1=C(C)C(=O)C(C(CCC(=O)O)c2ccccc2)=C(C)C1=O (stereo unspecified) , please?
Reply: 0

Query: Fill blank: measured Inhibition of the molecule CC1=C(C)C(=O)C(C(C)CCCCCC(=O)O)=C(C)C1=O (stereo unspecified) is ____.
Reply: 0

Query: What measured Inhibition goes with CC1=C(C)C(=O)C(C(CCCCCC(=O)O)c2ccc(Cl)cc2)=C(C)C1=O (stereo unspecified) ?
Reply: 100

Query: Can you share its Inhibition? I mean this molecule: CC1=C(C)C(=O)C(C(CCCCCc2nnn[nH]2)c2ccccc2)=C(C)C1=O (stereo unspecified)
Reply: 2

Query: Can you share its Inhibition? I mean this molecule: COC(=O)CCCCCC(C1=C(C)C(=O)C(C)=C(C)C1=O)c1ccccc1 (stereo unspecified)
Reply: 95

Query: Fill in the blank: the reported Inhibition of CC1=C(C)C(=O)C(C(CCCCCC(=O)NCC(=O)O)c2ccccc2)=C(C)C1=O (stereo unspecified) is ____.
Reply: 0

====

Can you tell me IC50 for the items I'm about to list?
Organism: Cavia porcellus
Assay info: In vitro concentration that reduced U-44069-induced aggregation of guinea pig platelets by 50%
Assay type: functional
All answers are understood in µM, so give the number only.

Query: I am curious: what IC50 value has been reported for CC1=C(C)C(=O)C(C(CCCCCC(=O)O)c2ccccc2)=C(C)C1=O (stereo not drawn) ?
Reply: 0.35

Query: Recorded IC50 of CC1=C(C)C(=O)C([C@@H](CCCCCC(=O)O)c2ccccc2)=C(C)C1=O , please.
Reply: 13

Query: Value lookup for IC50; key = CC1=C(C)C(=O)C([C@H](CCCCCC(=O)O)c2ccccc2)=C(C)C1=O
Reply: 0.12

====

Species: Oryctolagus cuniculus
Assay info: In vitro percent inhibition against U-44,069 (10e-7 M) induced contraction of rabbit aorta at 10e-7 M concentration
Assay type: functional
Please respond with reported Inhibition for every item in the list.
I only need the number, in %, no unit after it.

Query: What value of measured Inhibition is listed for CC1=C(C)C(=O)C(C(CCCCCC(=O)O)c2ccccc2)=C(C)C1=O (stereo unspecified) [SERATRODAST] ?
Reply: 49

Query: Given CC1=C(C)C(=O)C(C(CCCCCC(=O)O)c2ccc(Cl)cc2)=C(C)C1=O (stereo unspecified) , state its recorded Inhibition.
Reply: 17

Query: Which Inhibition is reported for this compound? CC1=C(C(CCCCCC(=O)O)c2ccc(F)cc2)C(=O)c2ccccc2C1=O (stereo unspecified)
Reply: 78

Query: Reported Inhibition for CC1=C(C)C(=O)C(C(CCCCCC(=O)O)c2ccc(F)cc2)=C(C)C1=O (stereo unspecified) : what is it?
Reply: 96

Query: Entry CC1=C(C(CCCCCC(=O)O)c2ccccc2)C(=O)c2ccccc2C1=O (stereo unspecified) has what Inhibition?
Reply: 20

Query: GET /values?readout=Inhibition&item= CC1=C(C)C(=O)C(C(CCCCCC(=O)O)c2cccs2)=C(C)C1=O (stereo unspecified)
Reply: 0

====

Organism: Oryctolagus cuniculus
Assay info: In vitro percent inhibition against U-44,069 (10e-7 M) induced contraction of rabbit aorta at 10e-5 M concentration.
Format: functional
Please provide measured Inhibition for the entries that follow.
Returns: string containing the number followed by the unit.

Query: I would be grateful if you could share the reported Inhibition for CC1=C(C)C(=O)C(C(CCC(=O)NCC(=O)O)c2ccccc2)=C(C)C1=O (stereo unspecified) .
Reply: 0%

Query: May I ask what Inhibition has been recorded for CC1=C(C)C(=O)C(C(CCCCCCC(=O)O)c2ccccc2)=C(C)C1=O (stereo unspecified) ?
Reply: 98%

Query: Look at this molecule and give its reported Inhibition. CC1=C(C)C(=O)C(C(CCCCCC(=O)O)c2ccccc2)=C(C)C1=O (stereo unspecified)
Reply: 99%

Query: Consider the molecule shown here: CC1=C(C)C(=O)C(C(CCCCCC(=O)NC(C)C)c2ccccc2)=C(C)C1=O (stereo unspecified) What is its recorded Inhibition?
Reply: 8%

Query: Given the entry CC1=C(C)C(=O)C(C(CCCCCCCCC(=O)O)c2ccccc2)=C(C)C1=O (stereo unspecified) , report its measured Inhibition.
Reply: 41%

Query: Field request: Inhibition | item: CC1=C(C)C(=O)C(C(CCCCCC(=O)O)c2ccccc2C)=C(C)C1=O (stereo unspecified)
Reply: 99%

====

Species: Oryctolagus cuniculus
Assay info: In vitro percent inhibition against U-44,069 (10e-7 M) induced contraction of rabbit aorta at 10e-5 M concentration.
Format: functional
Binary label based on Inhibition with cut-off 30%: below gives met, not below gives not met.

Query: # check: Inhibition < 30% for CC1=C(C)C(=O)C(C(CCCCCC(N)=O)c2ccccc2)=C(C)C1=O (stereo not given)
Reply: met

Query: State whether 30% exceeds Inhibition recorded for COC1=C(OC)C(=O)C(C(CCCCCC(=O)O)c2ccc(F)cc2)=C(C)C1=O (stereo not given) .
Reply: not met

Query: Below 30% on Inhibition? Entry CC1=C(C)C(=O)C(C(CCCCCC(=O)O)c2cccc(F)c2)=C(C)C1=O (stereo not given)
Reply: not met

Query: Given the entry CC1=C(C)C(=O)C(C(CCCC(=O)O)c2ccccc2)=C(C)C1=O (stereo not given) , would its reported Inhibition be below 30%?
Reply: met

Query: # check: Inhibition < 30% for CC1=C(C)C(=O)C(C(CCCCC(C)(C)C(=O)O)c2ccccc2)=C(C)C1=O (stereo not given)
Reply: met

Query: In plain terms, does CC1=C(C)C(=O)C(C(CCCCCCCC(=O)O)c2ccccc2)=C(C)C1=O (stereo not given) come in under 30% for Inhibition?
Reply: not met

Query: Could you please tell me whether Inhibition recorded for CC1=C(C)C(=O)C(C(CCCCCC(=O)O)c2ccc(Br)cc2)=C(C)C1=O (stereo not given) is less than 30%?
Reply: not met

Query: State whether 30% exceeds Inhibition recorded for CC1=C(C)C(=O)C(C(CCCCCC(=O)O)c2cccs2)=C(C)C1=O (stereo not given) .
Reply: not met

Query: State whether 30% exceeds Inhibition recorded for CC1=C(C)C(=O)C(C(CCCCCC(=O)O)c2ccc(C(C)C)cc2)=C(C)C1=O (stereo not given) .
Reply: met

Query: # TODO verify Inhibition < 30% strictly for this compound: CC1=C(C)C(=O)C(C(CCCCCC(=O)NC(C)c2ccccc2)c2ccccc2)=C(C)C1=O (stereo not given)
Reply: not met

Where do the numbers come from? From ChEMBL document CHEMBL1124597.
